TARGET_ENTITY: human μ-opioid receptor (Homo sapiens, UniProt P35372)
Construct: expressed in transfected cells; host or cells: CHO-K1
Sequence (P35372 whole entry): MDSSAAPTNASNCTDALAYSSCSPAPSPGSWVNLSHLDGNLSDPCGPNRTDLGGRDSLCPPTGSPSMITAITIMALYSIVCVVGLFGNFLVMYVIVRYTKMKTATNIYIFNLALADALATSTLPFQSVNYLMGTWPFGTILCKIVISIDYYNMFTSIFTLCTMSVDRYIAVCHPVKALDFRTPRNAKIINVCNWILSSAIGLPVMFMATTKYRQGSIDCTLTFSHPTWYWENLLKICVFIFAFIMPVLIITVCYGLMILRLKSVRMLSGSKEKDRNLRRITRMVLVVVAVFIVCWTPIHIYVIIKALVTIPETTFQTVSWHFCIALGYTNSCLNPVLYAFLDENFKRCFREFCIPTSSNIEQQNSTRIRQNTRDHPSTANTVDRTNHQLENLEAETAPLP
ASSAY_PROCEDURE: Human μ-opioid receptor radioligand assay ([3H]-DAMGO)
Format: binding
pKi: −log10 of the molar value.
Here the recorded pKi is given for each entry.
METRIC_NAME: pKi

- COc1ccc(Cc2cc(CN)nn2-c2ccc(Cl)cc2Cl)cc1: 6.30 to 7.00
- COc1ccc(-n2nc(CN)cc2Cc2ccc(O)cc2)c(Cl)c1: > 7.00
- CCC(CN)c1cc(Cc2ccc(O)cc2)n(-c2ccc(Cl)cc2Cl)n1 (centres unmarked): > 7.00
- COc1ccc(-n2nc(C(C)N)cc2Cc2ccc(O)cc2)c(Cl)c1 (centres unmarked): > 7.00
- CC(C)Cn1nc(CN)cc1Cc1ccc(O)cc1: < 6.30

* * *

TARGET_ENTITY: Human α2δ-1 subunit of Cav2.2 calcium channel (Homo sapiens)
ASSAY_PROCEDURE: Human α2δ-1 subunit of Cav2.2 calcium channel assay ([3H]-Gabapentin binding)
CONDITION_PARAMETERS: human α2δ-1 enriched membranes, 15 nM [3H]-Gabapentin; read-out: α2δ-1 binding
METRIC_NAME: Ki

* CCNCc1cc(Cc2ccc(O)cc2)n(CC(C)C)n1 | 3 to 5 µM
* COc1ccc(Cc2cc(CN)nn2C(C)c2ccccc2)cc1 (stereo not drawn) | 0.5 to 3 µM
* NCc1cc(Cc2ccc(O)cc2)n(Cc2ccccc2)n1 | 3 to 5 µM
* COc1ccc(Cc2cc(CN)nn2-c2ccccn2)cc1 | 3 to 5 µM
* CCC(N)c1cc(Cc2ccc(OC)cc2)n(-c2ccc(Cl)cc2Cl)n1 (stereo not drawn) | > 5 µM
* NCc1cc(Cc2ccccc2)n(-c2cccc(O)c2)n1 | 3 to 5 µM
* COc1ccc(Cc2cc(CN(C)C)nn2-c2ccc(Cl)cc2Cl)cc1 | 3 to 5 µM
* CCCC(N)c1cc(Cc2ccc(OC)c(F)c2)n(-c2ccc(Cl)cc2Cl)n1 (stereo not drawn) | > 5 µM
* CC(N)c1cc(Cc2ccc(OCCO)cc2)n(-c2ccc(Cl)cc2Cl)n1 (stereo not drawn) | 0.5 to 3 µM
* CC(N)c1cc(Cc2ccc(O)cc2)n(C2CCOCC2)n1 (stereo not drawn) | > 5 µM
* CCNCc1cc(Cc2ccc(OC)cc2)n(CC(C)C)n1 | 0.5 to 3 µM
* COc1ccc(Cl)c(-n2nc(C(C)N)cc2Cc2ccc(O)cc2)c1 (stereo not drawn) | > 5 µM
* CS(=O)(=O)Nc1ccc(Oc2cc(CN)nn2-c2ccc(Cl)cc2Cl)cc1 | > 5 µM
* COc1ccc(Cc2cc(CN)nn2-c2ccccc2)cc1 | 0.5 to 3 µM
* NCc1cc(Cc2ccc(Nc3nccs3)cc2)n(-c2ccc(Cl)cc2Cl)n1 | 0.5 to 3 µM
* COc1ccc(Cc2cc(CN)nn2-c2ccccc2Cl)cc1 | 0.5 to 3 µM
* COc1ccc(Cc2cc(CN)nn2Cc2ccc(Cl)cc2Cl)cc1 | 0.5 to 3 µM
* NCc1cc(Cc2ccc(O)cc2)n(-c2ccc(Cl)cc2)n1 | 3 to 5 µM

* * *

Here the recorded Ki is given for each entry.
TARGET_ENTITY: Human α2δ-1 subunit of Cav2.2 calcium channel (Homo sapiens, UniProt P54289)
Sequence (P54289 25-1103): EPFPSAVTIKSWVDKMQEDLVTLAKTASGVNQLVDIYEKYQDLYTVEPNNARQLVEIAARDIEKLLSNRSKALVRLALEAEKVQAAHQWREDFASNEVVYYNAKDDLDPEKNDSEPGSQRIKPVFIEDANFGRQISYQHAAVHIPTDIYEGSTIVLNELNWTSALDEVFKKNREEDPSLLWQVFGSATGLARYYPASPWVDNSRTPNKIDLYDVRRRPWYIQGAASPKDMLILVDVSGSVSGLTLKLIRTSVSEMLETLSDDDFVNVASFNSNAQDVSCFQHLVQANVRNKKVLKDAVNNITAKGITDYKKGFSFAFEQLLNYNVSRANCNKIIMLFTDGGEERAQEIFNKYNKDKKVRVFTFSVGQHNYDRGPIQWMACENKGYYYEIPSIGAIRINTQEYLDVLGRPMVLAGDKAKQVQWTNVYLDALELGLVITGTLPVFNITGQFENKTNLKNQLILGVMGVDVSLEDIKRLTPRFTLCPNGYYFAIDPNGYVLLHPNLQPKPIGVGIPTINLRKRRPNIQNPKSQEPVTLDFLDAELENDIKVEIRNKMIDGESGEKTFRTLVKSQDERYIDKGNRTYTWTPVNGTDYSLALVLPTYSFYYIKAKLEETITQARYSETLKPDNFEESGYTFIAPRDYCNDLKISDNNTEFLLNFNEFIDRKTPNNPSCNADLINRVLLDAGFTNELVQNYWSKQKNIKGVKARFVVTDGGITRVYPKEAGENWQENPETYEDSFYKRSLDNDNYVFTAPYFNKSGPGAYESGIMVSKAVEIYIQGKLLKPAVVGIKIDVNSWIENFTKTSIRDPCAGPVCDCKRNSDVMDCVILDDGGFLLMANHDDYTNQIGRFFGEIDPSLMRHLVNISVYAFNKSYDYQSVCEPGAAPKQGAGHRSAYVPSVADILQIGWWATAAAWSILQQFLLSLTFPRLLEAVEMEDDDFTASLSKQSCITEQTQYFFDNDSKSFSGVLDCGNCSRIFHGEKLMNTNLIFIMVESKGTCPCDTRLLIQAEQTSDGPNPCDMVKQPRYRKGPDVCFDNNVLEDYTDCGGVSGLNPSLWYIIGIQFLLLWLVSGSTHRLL
ASSAY_PROCEDURE: Human α2δ-1 subunit of Cav2.2 calcium channel assay ([3H]-Gabapentin binding)
METRIC_NAME: Ki

• CC(N)c1cc(Cc2ccc(O)c(F)c2)n(-c2ccc(Cl)cc2Cl)n1 (stereo in doubt) [Example 63] = > 5000 nM
• COc1ccc(-n2nc([C@H](C)N)cc2Cc2ccc(O)cc2)c(Cl)c1 [Example 70] = < 500 nM
• CC(N)Cc1cc(Cc2ccc(O)cc2)n(-c2ccc(Cl)cc2Cl)n1 (centres unmarked) [Example 68] = > 5000 nM
• COc1ccc(Cc2cc(C(C)N)nn2-c2ccc(Cl)cc2Cl)cc1 (centres unmarked) [Example 24] = 500 to 3000 nM
• CC(C)Cn1nc(CN)cc1Cc1ccc(O)cc1 [Example 44] = < 500 nM
• CC(N)c1cc(Cc2ccc(O)c(F)c2)n(-c2ccc(Cl)cc2Cl)n1 (centres unmarked) [Example 52] = < 500 nM
• COc1ccc(-n2nc(C(C)N)cc2Cc2ccc(O)cc2)c(Cl)c1 (centres unmarked) [Example 27] = < 500 nM
• CC(N)c1cc(Cc2ccc(O)cc2)n(-c2ccc(Cl)cc2Cl)n1 (centres unmarked) [Example 51] = < 500 nM
